# Assay Procedure: Metabolic stability in human liver microsomes assessed as parent compound remaining measured after 30 mins
# Assay type: ADME, Microsome
# Condition Description: read-out: Stabilty

[
  {
    "Smiles Repr": "COc1ccc(CCN(Cc2ccc(C(=O)O)cc2)c2nc3cccnc3s2)cc1",
    "remaining at 0.5 h / %": 62.8
  }
]

* * *

# Assay Procedure: AUC(t) in mouse at 5 mg/kg, po measured after 24 hrs
# Assay type: ADME, organism-based
# Design: route oral, time 24 hrs, dose 5 mg/kg
# Condition Description: in vivo

[
  {
    "Smiles Repr": "COc1ccc(CCN(Cc2ccc(C(=O)O)cc2)c2nc3cccnc3s2)cc1",
    "Readout Unit": "ng·h/mL",
    "AUC(0-t) at 24 h": 168
  }
]

* * *

# Test System: UniProt P08684
# Sequence (P08684 whole entry): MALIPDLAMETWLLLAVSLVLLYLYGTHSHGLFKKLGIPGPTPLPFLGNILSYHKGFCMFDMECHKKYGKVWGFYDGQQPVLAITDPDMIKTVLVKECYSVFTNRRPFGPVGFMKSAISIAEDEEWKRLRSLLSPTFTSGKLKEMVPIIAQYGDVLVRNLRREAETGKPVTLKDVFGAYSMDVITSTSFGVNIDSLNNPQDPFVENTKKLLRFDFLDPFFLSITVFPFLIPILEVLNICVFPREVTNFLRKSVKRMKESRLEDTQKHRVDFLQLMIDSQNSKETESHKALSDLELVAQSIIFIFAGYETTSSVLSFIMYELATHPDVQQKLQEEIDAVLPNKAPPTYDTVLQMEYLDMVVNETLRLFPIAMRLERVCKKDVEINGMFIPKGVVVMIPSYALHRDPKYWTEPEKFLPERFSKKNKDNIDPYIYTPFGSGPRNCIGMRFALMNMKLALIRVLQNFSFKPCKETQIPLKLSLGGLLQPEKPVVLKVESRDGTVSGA
# Assay Procedure: Inhibition of CYP3A4 (unknown origin) assessed as enzyme residual activity at 10 uM
# Format: ADME
# Condition Description: read-out: Activity
Each entry below carries its reported activity at 10 µM.
Experimental Endpoint: activity at 10 µM

[
  {
    "Compound": "CC(=O)N1CCN(c2ccc(OCC3COC(Cn4ccnc4)(c4ccc(Cl)cc4Cl)O3)cc2)CC1 (configuration not stated) [KETOCONAZOLE]",
    "Value Reported": "31.8%"
  },
  {
    "Compound": "COc1ccc(CCN(Cc2ccc(C(=O)O)cc2)c2nc3cccnc3s2)cc1",
    "Value Reported": "98.4%"
  }
]

* * *

# Test System: Lysine--tRNA ligase (Homo sapiens, UniProt Q15046)
# Sequence (Q15046 whole entry): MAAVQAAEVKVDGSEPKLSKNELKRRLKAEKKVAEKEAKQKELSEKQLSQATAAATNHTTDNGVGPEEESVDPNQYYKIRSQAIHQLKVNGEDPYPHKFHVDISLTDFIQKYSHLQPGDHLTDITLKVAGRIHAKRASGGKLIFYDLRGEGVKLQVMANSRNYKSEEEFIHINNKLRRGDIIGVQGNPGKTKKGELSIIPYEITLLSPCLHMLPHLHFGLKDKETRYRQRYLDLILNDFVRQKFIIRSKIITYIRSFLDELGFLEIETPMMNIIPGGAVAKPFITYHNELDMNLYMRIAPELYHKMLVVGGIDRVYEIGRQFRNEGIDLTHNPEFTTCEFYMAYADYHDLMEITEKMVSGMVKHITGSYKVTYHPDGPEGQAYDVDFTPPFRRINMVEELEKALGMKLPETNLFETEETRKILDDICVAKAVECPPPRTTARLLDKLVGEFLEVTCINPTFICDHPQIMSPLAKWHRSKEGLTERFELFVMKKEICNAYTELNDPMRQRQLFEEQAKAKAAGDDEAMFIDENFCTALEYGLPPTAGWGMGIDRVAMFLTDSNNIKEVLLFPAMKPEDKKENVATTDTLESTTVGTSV

[
  {
    "Compound": "CCC(C(=O)O)n1/c(=N/C(=O)c2cccc(C(F)(F)F)c2)sc2cc(F)c(F)cc21 (stereo unspecified)",
    "Test System": "Lysine--tRNA ligase (Homo sapiens, UniProt Q15046)",
    "Kd / µM": 49.2
  }
]

* * *

# Assay Procedure: Oral bioavailability in mouse at 5 mg/kg measured after 24 hrs
# Type: ADME, organism-based
# Condition Description: in vivo

[
  {
    "Smiles Repr": "COc1ccc(CCN(Cc2ccc(C(=O)O)cc2)c2nc3cccnc3s2)cc1",
    "bioavailability [%]": 87.9
  }
]

* * *

# Assay Procedure: Volume of distribution at steady state in mouse at 5 mg/kg, iv measured after 24 hrs
# Format: ADME, organism-based
# Condition Description: in vivo, read-out: Vdss
Experimental Endpoint: Vd (L/kg)

[
  {
    "Smiles Repr": "COc1ccc(CCN(Cc2ccc(C(=O)O)cc2)c2nc3cccnc3s2)cc1",
    "Experimental Endpoint": "Vd",
    "Readout Unit": "L/kg",
    "Value Reported": 149
  }
]

* * *

# Assay Procedure: Clearance in mouse at 5 mg/kg, iv measured after 24 hrs
# Format: ADME, organism-based
# Condition Description: in vivo

[
  {
    "Smiles Repr": "COc1ccc(CCN(Cc2ccc(C(=O)O)cc2)c2nc3cccnc3s2)cc1",
    "Readout Unit": "mL/min/kg",
    "clearance": 392
  }
]

* * *

# Assay Procedure: Half life in mouse at 5 mg/kg, po measured after 24 hrs
# Format: ADME, organism-based
# Condition Description: in vivo

[
  {
    "Smiles Repr": "COc1ccc(CCN(Cc2ccc(C(=O)O)cc2)c2nc3cccnc3s2)cc1",
    "Readout Unit": "h",
    "half-life": 1.56
  }
]

* * *

# Assay Procedure: Cmax in mouse at 5 mg/kg, po measured after 24 hrs
# Format: ADME, organism-based
# Parameters: route oral, dose 5 mg/kg, time 24 hrs
# Condition Description: in vivo

[
  {
    "Smiles Repr": "COc1ccc(CCN(Cc2ccc(C(=O)O)cc2)c2nc3cccnc3s2)cc1",
    "Readout Unit": "ng/mL",
    "Cmax": 40
  }
]

* * *

# Test System: UniProtKB P11712
# Sequence (P11712 whole entry): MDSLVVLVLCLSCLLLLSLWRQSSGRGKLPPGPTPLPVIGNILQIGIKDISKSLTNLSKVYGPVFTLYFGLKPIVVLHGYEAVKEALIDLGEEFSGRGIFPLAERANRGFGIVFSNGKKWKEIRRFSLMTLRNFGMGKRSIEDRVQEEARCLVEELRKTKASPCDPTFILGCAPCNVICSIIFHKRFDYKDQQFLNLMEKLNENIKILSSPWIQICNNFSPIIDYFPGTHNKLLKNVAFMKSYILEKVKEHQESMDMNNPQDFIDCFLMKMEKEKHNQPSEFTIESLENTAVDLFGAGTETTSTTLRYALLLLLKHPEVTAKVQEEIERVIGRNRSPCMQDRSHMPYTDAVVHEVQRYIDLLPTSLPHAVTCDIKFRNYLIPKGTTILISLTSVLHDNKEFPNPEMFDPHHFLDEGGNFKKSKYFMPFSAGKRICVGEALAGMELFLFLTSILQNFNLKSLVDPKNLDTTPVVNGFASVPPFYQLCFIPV
# Assay Procedure: Inhibition of CYP2C9 (unknown origin) assessed as enzyme residual activity at 10 uM
# Type: ADME
# Condition Description: read-out: Activity
Each entry below carries its reported activity at 10 µM.

[
  {
    "Compound": "COc1ccc(CCN(Cc2ccc(C(=O)O)cc2)c2nc3cccnc3s2)cc1",
    "Readout Unit": "%",
    "Result Operator": "=",
    "activity at 10 µM": 74.6
  },
  {
    "Compound": "CC(=O)N1CCN(c2ccc(OCC3COC(Cn4ccnc4)(c4ccc(Cl)cc4Cl)O3)cc2)CC1 (configuration not stated)",
    "Readout Unit": "%",
    "Result Operator": ">",
    "activity at 10 µM": 100
  }
]

* * *

# Assay Procedure: Metabolic stability in rat liver microsomes assessed as parent compound remaining measured after 30 mins
# Format: ADME, Microsome
# Condition Description: read-out: Stabilty

[
  {
    "Smiles Repr": "COc1ccc(CCN(Cc2ccc(C(=O)O)cc2)c2nc3cccnc3s2)cc1",
    "remaining at 0.5 h [%]": 73
  }
]

These entries and their values trace back to ChEMBL document CHEMBL4823255.
